The reported numbers originate from ChEMBL document CHEMBL3400040.

Below, each entry is listed with its recorded pIC50.
tested on: Leishmania donovani; experiment: Antileishmanial activity against promastigote stage of Leishmania donovani MHOM/IN/00/DEVI assessed as inhibition of metabolic activity after 72 hrs by MTT assay; assay type: functional, organism-based; details: Leishmania donovani, MHOM/IN/00/DEVI, 72 h; read-out: IC50
Field pIC50 (float): negative decimal logarithm of the concentration in molar.

Solved cases (5 shown):
INSERT INTO measurements (compound, experimental_target, test_readout, reading) VALUES
  ('CCC(O)CC#Cc1cc(=O)[nH]c2c([N+](=O)[O-])cccc12 (stereo unspecified)', 'Leishmania donovani', 'pIC50', 4.78),
  ('Cc1ccc(-c2cc(=O)[nH]c3c([N+](=O)[O-])cccc23)cc1', 'Leishmania donovani', 'pIC50', 5.04),
  ('O=c1cc(-c2ccc(Br)cc2)c2cccc([N+](=O)[O-])c2[nH]1', 'Leishmania donovani', 'pIC50', 5.48),
  ('O=c1cc(-c2ccccc2)c2cccc([N+](=O)[O-])c2[nH]1', 'Leishmania donovani', 'pIC50', 4.83),
  ('O=c1cc(-c2ccncc2)c2cccc([N+](=O)[O-])c2[nH]1', 'Leishmania donovani', 'pIC50', 4.11);

Record O=c1cc(-c2ccc(F)cc2)c2cccc([N+](=O)[O-])c2[nH]1 : what is its pIC50 with Leishmania donovani? 4.55

Record O=c1cc(C#CCCO)c2cccc([N+](=O)[O-])c2[nH]1 : what is its pIC50 with Leishmania donovani? 4.66
